system: NCI-H522; test: NCI tumour cell line growth inhibition, 48 h
The source made the active and inactive calls. No stated cut-off is given here; in the data, active = GI50 up to about 1.1 µM and inactive = higher.
Outcomes: active, inactive

Compound	Assigned label
COc1cc(C2c3cc4c(cc3[C@@H](OCCN(C)C)C3COC(=O)[C@H]23)OCO4)cc(OC)c1O (some centres undefined)	active
Cc1cc(C)nc(NC(P(=O)(O)O)P(=O)(O)O)n1	inactive
O=C1c2c(nc3ccccc3c2-c2ccccc2)CN1Nc1ccccc1	inactive
CC1(C)N=C2C(=O)c3c([nH]c4ccccc34)[C@]3(C)CCC1CC23 (some centres undefined)	inactive
c1cnc2c(c1)-n1cccc1C1(CCSC1)NN2 (centres undefined)	inactive
CCOC(=O)c1sc2nc(SC)nc3c2c1N=CN3c1ccccc1Cl	inactive
O=c1oc2ccc([N+](=O)[O-])cc2cc1Br	inactive
N#CC12CCC(O)C(CC1)C2=O (centres undefined)	inactive
Cn1c(=S)sc2nc3ccccc3n2c1=S	inactive
CC(=O)C1C(=O)C(=O)N(c2ccccc2N2C(=O)C(=O)C(C(C)=O)C2=O)C1=O (centres undefined)	inactive
O=C1c2ccccc2-c2c1c1ccccc1c(=O)n2Cc1ccccc1	inactive
CC(C)C12Cc3c(ccc4ccccc34)OC1(C)Oc1ccc3ccccc3c1C2 (centres undefined)	inactive
NCCNCc1c2ccccc2c(CNCCN)c2ccccc12	inactive
CCSc1s/c(=N/c2ccc(/N=c3\sc(C)c(SC)s3)cc2)sc1-c1ccc(C)cc1	inactive

* * *

test system: HL-60; test: NCI tumour cell line growth inhibition, 48 h
Counter-ions that a name gives are not always drawn. Activity calls are given as the source filed them. Cut-off read from the data, not from the text of the source: active = GI50 up to about 1.1 µM and inactive = higher. Where a SMILES comes first, the peptide text is derived from it. The star is where a group is joined. Boc = CC(C)(C)OC(=O)*; OBn = c1ccc(CO*)cc1
Outcomes: TRUE for active, FALSE for inactive

Compound	Assigned label
C=C1CC(OC(C)=O)/C=C(/C)CCC(C(C)(C)O)CC1O (stereo not drawn)	FALSE
COc1cccc(/N=C/c2cc(OC)c(OC)c(OC)c2)c1	FALSE
COc1cc(CC(C(=O)O)C(=O)O)c(OC)cc1CC(C(=O)O)C(=O)O	FALSE
Cn1c([C@H](C#N)c2ncccc2[N+](=O)[O-])nc2ccccc21	FALSE
CC(NC(=O)C(Cc1ccccc1)NC(=O)C(Cc1ccccc1)NC(=O)OC(C)(C)C)C(=O)OCc1ccccc1 (stereo not drawn) (Boc-Phe-Phe-Ala-OBn; configuration not given here)	FALSE
O=C1c2ccccc2NC1(c1ccccc1)c1c(-c2ccccc2)[nH]c2ccccc12 (stereo not drawn)	FALSE
C=C1C2CC3CCC2C(OC(=O)c2ccccc2C(=O)O)C13 (stereo not drawn)	FALSE
CC(C)=C1C(=O)C[C@]2(C)C[C@H]3O[C@]3(C)CC[C@@H]3O[C@@]3(C)CC[C@@H]12	FALSE
COc1ccc(N/N=C(\CCN(C)C)c2ccccc2)cc1	FALSE
CC(=O)O[C@H]1CC[C@@]2(C)C(=CC[C@@H]3[C@@H]2CC[C@]2(C)c4nc(Cl)ccc4C[C@@H]32)C1	FALSE
CN1[C@@H]2CC[C@H]1C[C@@H](OC(c1ccccc1)c1ccccc1)C2 [BENZTROPINE MESYLATE]	FALSE
COC(=O)c1c(C)cccc1C1CN=NC12Cc1cc(C)c(C)cc1C2=O (stereo not drawn)	FALSE
Cc1cn(CCCCOC(=O)NC(CCCNC(=N)N)C(=O)O)c(=O)[nH]c1=O (stereo not drawn)	FALSE
COc1ccc(OC)c(-c2cc(O)c3cc4c(cc3n2)OCO4)c1	FALSE
S=C(N/N=C(/c1ccccc1)c1ccccn1)Nc1ccc(Cl)cc1	TRUE
CC(=O)O[C@H]1CC(C)(C)C(=C=C/C(C)=C/C=C/C=C/C=C(C)/C=C2C=C(/C=C/[C@@]34O[C@]3(C)C[C@@H](O)CC4(C)C)C(=O)O/2)[C@](C)(O)C1	FALSE
CC(=O)Nc1ccc(/C=C/C(=O)c2sc(-n3nc(-c4ccccc4)cc3-c3ccccc3)nc2C)cc1	FALSE
CCOC(=O)/C=C1\Nc2ccccc2C12CCc1c([nH]c3ccccc13)C2C(=O)OCC (stereo not drawn)	FALSE
O=C1C(O)=C(Cl)C(=O)c2c(O)ccc(O)c21	FALSE
CS(=O)(=O)OCCCSCCSCCCOS(C)(=O)=O	FALSE
COc1cc(/C=[N+](\[O-])c2ccccc2Cl)ccc1OC(=S)S	FALSE
C=CC1=C(C)c2cc3[nH]c(c4c5nc(cc6[nH]c(cc1n2)c(C)c6CC)C(C)=C5C(=O)[C@@H]4C(=O)OC)[C@@H](CCC(=O)O)[C@@H]3C	FALSE
CS(=O)(=O)N1CC(CCl)c2ccc(NO)cc21 (stereo not drawn)	FALSE
O=C1Nc2ccc(Br)cc2/C1=N/c1ccc(Cl)cc1	FALSE
CN1CCN(C)C12C=c1ccccc1=CC21CC1	FALSE
O=C(O)CSC(NC(=O)C(C(F)(F)F)C(F)(F)F)(C(F)(F)F)C(F)(F)F	FALSE
COc1ccc(NC(=S)N/N=C(\c2ccccc2)c2ccccn2)cc1	TRUE
CC(C)(C)c1cc(COc2c3sc(=S)sc3c(OCc3cc(C(C)(C)C)cc(C(C)(C)C)c3)c3sc(=S)sc23)cc(C(C)(C)C)c1	FALSE
CCOC(=O)C1CCCCc2sc(N)c(C#N)c21 (stereo not drawn)	FALSE
O=c1[nH]n(Cc2ccccc2CCl)c2ccc([N+](=O)[O-])cc12	FALSE
CN(C)C(=S)/N=c1\ssc(=S)n1Cc1cccs1	FALSE
COC(=O)c1cc(O)c(O)c(O)c1-c1c(O)c(O)c(O)c(SC[C@H](NC(=O)OCc2ccccc2)C(=O)OCc2ccccc2)c1C(=O)OC	FALSE
NNc1nncc2[nH]cnc12	FALSE
Cc1c(Cl)ccc2c1NC(=O)C2(O)CC(=O)c1ccc(Cl)cc1 (stereo not drawn)	FALSE
Cc1ccc(O)c(-c2cc(-c3ccccc3)nc(/N=C\c3ccccc3)n2)c1	FALSE
Cc1ccc(Nc2nc(C)c(C(/C=C/c3ccc(/C=C/C(=N/NC(=O)C[n+]4ccccc4)c4sc(Nc5ccc(C)cc5[N+](=O)[O-])nc4C)cc3)=N\NC(=O)C[n+]3ccccc3)s2)c([N+](=O)[O-])c1	FALSE
Cn1c(=S)sc2nc3ccccc3n2c1=S	FALSE
Sc1ccc2ccccc2c1CNCc1ccccc1	FALSE

* * *

tested on: LOX IMVI; assay: NCI tumour cell line growth inhibition, 48 h
The source made the active and inactive calls. Rule as the data show it: active = GI50 up to about 1.1 µM and inactive = higher.
Outcome codes: true (1) (active), false (0) (inactive)

Molecule	Assigned label
O=c1[nH]n(Cc2ccccc2CCl)c2ccc([N+](=O)[O-])cc12	false (0)
NC(CCC(=O)Nc1ccc(O)cc1)C(=O)O (stereo not drawn)	false (0)
O=C(Nc1ccc2ncccc2c1)c1cc2c(cc1Cl)Sc1nccn1S2(=O)=O	false (0)
O=S(O)CCCCCSSc1ccccc1	false (0)
C/C=C/C/C=C/CCC(=O)C1OC1C(N)=O (stereo not drawn)	false (0)
CN(C)C1(N(C)C)Oc2c(c(=O)n(C)c(=O)n2C)C(c2ccccc2Br)C1(F)F (stereo not drawn)	false (0)
CC(C)(C)c1nc2c(o1)/C(=N\c1ccccc1)c1ccccc1C2=O	true (1)
C=C[C@]1(C)CCC2=C(CCC3C2(C)CCC[C@@]3(C)COC(C)=O)C1 (stereo partly drawn)	false (0)
Cc1cc(C)nc(NC(P(=O)(O)O)P(=O)(O)O)n1	false (0)
CC(C)c1ccc(/C=C2\CSCC3=C2N=C(S)NC3c2ccc(C(C)C)cc2)cc1 (stereo not drawn)	false (0)
O=C(C(Cl)=C(N1CCOCC1)N1CCOCC1)C(Cl)Cl	false (0)
CCOC(=O)c1sc2nc(SC)nc3c2c1N=CN3c1ccccc1Cl	false (0)
O=C(O)/C(Cc1ccc([N+](=O)[O-])cc1)=N\O	false (0)
CCOC(=O)CC1(c2cccc3ccccc23)OC(=O)c2ccccc21 (stereo not drawn)	false (0)
COc1ccc(/C=c2\sc3n(c2=O)C(N)=C(C#N)C(c2ccc(OC)cc2)C=3c2nc3ccccc3[nH]2)cc1 (stereo not drawn)	false (0)
COc1cc(C)c(C)c(OC(=O)c2c(C)c(C)c(OC)c(C)c2OC)c1C	false (0)
C=CCC12CC(=O)CCC1c1ccc(OC)cc1C2=O (stereo not drawn)	false (0)
CCCCCCCCCCCCCC(=O)OC1CC(=O)OC1CO (stereo not drawn)	false (0)
COc1ccc(/C(=N/N=c2\[nH]c3ccccc3n2Cc2ccccc2)C(=O)O)cc1	false (0)
Cc1ccc2ccccc2c1CC1S(=O)(=O)OCCOS1(=O)=O	false (0)
O=C(O)C1C2CC3C(OC(=O)C31)C2Br (stereo not drawn)	false (0)
Sc1ccc2ccccc2c1CNCc1ccccc1	false (0)
CN(C(=O)[C@H](NC(=O)OCc1ccccc1)c1ccccc1)C1CCCCC1N1CCCC1 (stereo partly drawn)	false (0)

* * *

tested on: LOX IMVI; experiment: NCI tumour cell line growth inhibition, 48 h
The source made the active and inactive calls. No stated cut-off is given here; in the data, active = GI50 up to about 1.1 µM and inactive = higher.

Compound	GI50
C[C@@H](NC(=O)[C@@H]1C[C@]1(C)COC(=O)c1cc([N+](=O)[O-])cc([N+](=O)[O-])c1)c1cccc2ccccc12	60.1 µM (inactive)
COc1ccc(-c2cc(-c3ccc(Nc4ccnc5cc(C(F)(F)F)ccc45)cc3)[nH]c(=O)c2C#N)c2ccccc12	24.2 µM (inactive)
CN(C)/C=N/NC(=O)/C(C#N)=C/N(C)C	> 100 µM (inactive)
COn1oc(=O)c2ccccc21	> 100 µM (inactive)
ON=C1CCCCC(=NO)CCCC1	> 100 µM (inactive)
O=C1C[C@H]2[C@H](c3ccc(Br)cc3)[C@H]3C(=O)c4ccccc4NC(=O)[C@@H]3[C@@]2(O)c2ccccc2N1	13.8 µM (inactive)
CSc1nc(NC2OCC(O)C(O)C2O)c(N)c(=O)n1C (stereo not given)	> 100 µM (inactive)
Cc1c2cccc-2c(OCCOC(=O)n2ccnc2)cc2c1[nH]c1ccccc12	1.89 µM (inactive)
O=[N+]([O-])c1cc(-[n+]2cc([O-])on2)ccc1Cl	17.9 µM (inactive)
COc1ccc(/C=C(\C#N)c2nc3ccccc3c(=O)[nH]2)cc1	43.4 µM (inactive)
